A collection of compounds and their measured AC50
target: Voltage-dependent L-type calcium channel subunit alpha-1C (Rattus norvegicus, UniProt P22002); format: functional; also: assay procedure not described here
Sequence (P22002 whole entry): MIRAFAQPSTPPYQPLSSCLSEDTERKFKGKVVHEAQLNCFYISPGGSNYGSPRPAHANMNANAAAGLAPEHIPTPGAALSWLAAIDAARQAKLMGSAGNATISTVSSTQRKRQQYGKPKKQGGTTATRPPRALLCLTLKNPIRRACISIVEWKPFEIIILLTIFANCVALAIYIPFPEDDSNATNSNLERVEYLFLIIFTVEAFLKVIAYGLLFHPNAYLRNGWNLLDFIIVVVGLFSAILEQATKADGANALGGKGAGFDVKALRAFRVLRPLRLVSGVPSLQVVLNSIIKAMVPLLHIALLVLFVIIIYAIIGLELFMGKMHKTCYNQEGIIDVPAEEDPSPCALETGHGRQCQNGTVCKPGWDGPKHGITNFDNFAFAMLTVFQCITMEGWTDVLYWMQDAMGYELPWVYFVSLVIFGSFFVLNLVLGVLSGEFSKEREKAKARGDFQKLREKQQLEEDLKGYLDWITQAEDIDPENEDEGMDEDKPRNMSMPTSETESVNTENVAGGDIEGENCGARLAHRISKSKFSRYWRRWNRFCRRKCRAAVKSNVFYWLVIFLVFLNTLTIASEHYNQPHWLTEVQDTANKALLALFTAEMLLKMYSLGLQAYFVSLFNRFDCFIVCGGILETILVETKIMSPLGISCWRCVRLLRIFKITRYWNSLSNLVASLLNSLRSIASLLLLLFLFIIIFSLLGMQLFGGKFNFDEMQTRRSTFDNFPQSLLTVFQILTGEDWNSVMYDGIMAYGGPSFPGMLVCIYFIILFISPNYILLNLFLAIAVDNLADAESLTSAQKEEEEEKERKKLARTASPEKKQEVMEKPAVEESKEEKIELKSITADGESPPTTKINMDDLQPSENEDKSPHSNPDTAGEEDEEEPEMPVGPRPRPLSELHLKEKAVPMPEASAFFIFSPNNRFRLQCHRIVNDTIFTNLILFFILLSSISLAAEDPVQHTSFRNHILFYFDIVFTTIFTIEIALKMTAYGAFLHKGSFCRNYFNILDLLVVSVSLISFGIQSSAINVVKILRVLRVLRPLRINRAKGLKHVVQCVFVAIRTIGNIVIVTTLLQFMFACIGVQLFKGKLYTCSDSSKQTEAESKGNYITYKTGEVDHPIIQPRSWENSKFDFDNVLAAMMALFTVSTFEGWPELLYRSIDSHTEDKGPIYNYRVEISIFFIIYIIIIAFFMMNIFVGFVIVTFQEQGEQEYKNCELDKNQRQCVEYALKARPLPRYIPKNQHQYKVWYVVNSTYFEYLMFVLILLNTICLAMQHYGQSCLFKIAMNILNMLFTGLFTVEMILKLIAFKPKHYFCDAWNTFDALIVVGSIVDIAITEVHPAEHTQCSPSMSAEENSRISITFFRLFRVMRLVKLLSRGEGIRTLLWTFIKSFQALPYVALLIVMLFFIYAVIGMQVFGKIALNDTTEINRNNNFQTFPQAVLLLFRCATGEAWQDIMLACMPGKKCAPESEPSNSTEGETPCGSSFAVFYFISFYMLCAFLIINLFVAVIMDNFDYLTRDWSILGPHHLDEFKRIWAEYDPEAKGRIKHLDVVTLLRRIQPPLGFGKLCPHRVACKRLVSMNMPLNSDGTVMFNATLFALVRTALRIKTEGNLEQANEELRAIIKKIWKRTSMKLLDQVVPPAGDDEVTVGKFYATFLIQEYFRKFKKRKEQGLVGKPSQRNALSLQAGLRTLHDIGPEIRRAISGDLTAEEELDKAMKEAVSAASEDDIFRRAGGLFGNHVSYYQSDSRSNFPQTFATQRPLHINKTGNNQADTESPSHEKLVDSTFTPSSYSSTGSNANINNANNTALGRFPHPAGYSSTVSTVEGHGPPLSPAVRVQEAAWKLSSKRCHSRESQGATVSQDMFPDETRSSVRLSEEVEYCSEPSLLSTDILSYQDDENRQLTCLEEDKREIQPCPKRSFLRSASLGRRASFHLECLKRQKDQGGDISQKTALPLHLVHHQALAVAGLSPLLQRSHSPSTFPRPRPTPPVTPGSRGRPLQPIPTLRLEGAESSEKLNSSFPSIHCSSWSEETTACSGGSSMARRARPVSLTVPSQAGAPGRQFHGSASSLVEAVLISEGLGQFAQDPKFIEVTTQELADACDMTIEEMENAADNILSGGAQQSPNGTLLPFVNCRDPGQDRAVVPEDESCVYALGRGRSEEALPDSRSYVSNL
assay-endpoint: AC50

compound | assay-endpoint | experimental-result
C#C[C@]1(O)CC[C@H]2[C@@H]3[C@H](C)CC4=C(CCC(=O)C4)[C@H]3CC[C@@]21C | AC50 | > 30 µM
COc1cc2nc(N3CCN(C(=O)c4ccco4)CC3)nc(N)c2cc1OC | AC50 | > 10 µM
COc1ccccc1OCC(O)CN1CCN(CC(=O)Nc2c(C)cccc2C)CC1 (stereo not drawn) | AC50 | > 30 µM
CC(C)C[C@H]1C(=O)N2CCC[C@H]2[C@]2(O)O[C@](NC(=O)[C@@H]3C=C4c5cccc6[nH]c(Br)c(c56)C[C@H]4N(C)C3)(C(C)C)C(=O)N12 | AC50 | > 10 µM
CN1CCC(=C2c3ccccc3CCc3sccc32)CC1 | AC50 | 20.1 µM
Cn1c(=O)c2c(ncn2CC2OCCO2)n(C)c1=O | AC50 | > 30 µM
CC1(C)NC(=O)N(c2ccc([N+](=O)[O-])c(C(F)(F)F)c2)C1=O [NILUTAMIDE] | AC50 | > 30 µM
CN1C(C(=O)Nc2ccccn2)=C(O)c2sc(Cl)cc2S1(=O)=O | AC50 | > 10 µM

---

These molecules were tested on Adenosine receptor A2a (Homo sapiens); AC50 is the recorded read-out. Also: assay procedure not described here.
Sequence (P29274 whole entry): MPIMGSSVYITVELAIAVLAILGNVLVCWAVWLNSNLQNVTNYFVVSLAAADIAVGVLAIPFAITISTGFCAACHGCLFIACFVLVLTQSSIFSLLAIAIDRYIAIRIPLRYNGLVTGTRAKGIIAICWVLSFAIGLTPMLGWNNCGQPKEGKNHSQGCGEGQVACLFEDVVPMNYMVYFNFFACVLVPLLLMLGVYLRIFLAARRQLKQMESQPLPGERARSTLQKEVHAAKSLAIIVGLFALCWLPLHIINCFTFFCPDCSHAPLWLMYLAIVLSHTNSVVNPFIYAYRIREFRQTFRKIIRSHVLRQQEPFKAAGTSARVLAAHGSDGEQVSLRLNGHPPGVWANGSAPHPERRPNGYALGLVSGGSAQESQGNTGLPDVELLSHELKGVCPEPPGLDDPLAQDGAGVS

molecule | AC50
Cc1ccc(-c2cc(C(F)(F)F)nn2-c2ccc(S(N)(=O)=O)cc2)cc1 [CELECOXIB] | > 10 µM
CCCC(=O)O[C@]1(C(=O)CO)CC[C@H]2[C@@H]3CCC4=CC(=O)CC[C@]4(C)[C@H]3[C@@H](O)C[C@@]21C [HYDROCORTISONE BUTYRATE] | > 10 µM
Cc1nc([N+](=O)[O-])cn1-c1ccc([N+](=O)[O-])cc1 [NITREFAZOLE] | > 30 µM
CCOc1ccccc1OCC1CNCCO1 (stereo not drawn) [VILOXAZINE] | > 30 µM
CNC(=O)c1ccccc1Sc1ccc2c(/C=C/c3ccccn3)n[nH]c2c1 [AXITINIB] | > 30 µM
C[C@]12CCC(=O)C=C1CC[C@@H]1[C@@H]2[C@@H](O)C[C@@]2(C)[C@H]1CC[C@]2(O)C(=O)CO [HYDROCORTISONE] | > 30 µM
CCN(CC)C(=O)N[C@H]1C[C@@H]2c3cccc4[nH]cc(c34)C[C@H]2N(C)C1 [TERGURIDE] | > 30 µM
CN1C(=O)C(O)N=C(c2ccccc2)c2cc(Cl)ccc21 (stereo not drawn) [TEMAZEPAM] | > 30 µM

---

Listed here: items and their measured AC50.
target: Glucocorticoid receptor (Homo sapiens, UniProt P04150); format: functional; also: assay procedure not described here
Sequence (P04150 whole entry): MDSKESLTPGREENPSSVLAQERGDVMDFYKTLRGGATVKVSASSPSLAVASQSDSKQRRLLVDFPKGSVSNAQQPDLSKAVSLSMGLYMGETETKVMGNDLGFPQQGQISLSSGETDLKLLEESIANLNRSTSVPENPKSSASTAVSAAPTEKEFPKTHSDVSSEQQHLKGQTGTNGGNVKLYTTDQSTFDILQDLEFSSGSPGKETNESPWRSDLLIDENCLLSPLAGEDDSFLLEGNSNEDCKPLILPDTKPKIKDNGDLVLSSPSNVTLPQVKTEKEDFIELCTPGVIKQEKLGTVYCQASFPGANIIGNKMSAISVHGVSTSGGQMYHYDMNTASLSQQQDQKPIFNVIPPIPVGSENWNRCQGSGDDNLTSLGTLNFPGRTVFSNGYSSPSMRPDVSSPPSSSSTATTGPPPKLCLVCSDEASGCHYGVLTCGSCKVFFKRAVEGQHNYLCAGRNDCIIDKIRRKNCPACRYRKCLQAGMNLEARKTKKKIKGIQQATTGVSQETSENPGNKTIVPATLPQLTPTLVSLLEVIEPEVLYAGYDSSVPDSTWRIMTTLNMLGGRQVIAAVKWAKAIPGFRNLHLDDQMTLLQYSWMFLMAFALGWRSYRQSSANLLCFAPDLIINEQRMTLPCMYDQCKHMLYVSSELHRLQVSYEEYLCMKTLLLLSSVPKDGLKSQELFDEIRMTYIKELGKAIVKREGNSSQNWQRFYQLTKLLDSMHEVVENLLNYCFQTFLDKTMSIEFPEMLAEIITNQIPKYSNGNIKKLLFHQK

compound | AC50
CCC1=C(C)CN(C(=O)NCCc2ccc(S(=O)(=O)NC(=O)N[C@H]3CC[C@H](C)CC3)cc2)C1=O [GLIMEPIRIDE] | > 30 µM
C/C(O)=C(\C#N)C(=O)Nc1ccc(C(F)(F)F)cc1 [TERIFLUNOMIDE] | > 10 µM
c1cnc(N2CCN(Cc3ccc4c(c3)OCO4)CC2)nc1 [PIRIBEDIL] | > 30 µM
CN(C)CCC=C1c2ccccc2C(C)(C)c2ccccc21 | > 30 µM
C[C@@H](O)[C@H]1C(=O)N2C(C(=O)O)=C(S[C@@H]3CN[C@H](C(=O)N(C)C)C3)[C@H](C)[C@H]12 [MEROPENEM] | > 300 µM
CCCN1C[C@H](CSC)C[C@@H]2c3cccc4[nH]cc(c34)C[C@H]21 [PERGOLIDE] | > 30 µM
c1ccc([C@H]2CN3CCSC3=N2)cc1 [LEVAMISOLE] | > 30 µM
Cc1c(C(=O)NN2CCCCC2)nn(-c2ccc(Cl)cc2Cl)c1-c1ccc(Cl)cc1 [RIMONABANT] | > 30 µM
CNC1Cc2ccccc2N(C)c2ccccc21 (centres undefined) [METAPRAMINE] | > 30 µM
